- method-description: chemical genetic growth profiling, strain panel (AID 1159580);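 also: tested at 20 µM; growth read once vehicle control cultures reached saturation at 30 °C; 1 = growth at the plate median or of vehicle wells; lower values mean less growth of the strain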
- conditions-used: S. cerevisiae deletion strains, growth OD, locus YBR021W, strain FUR4
Screen size: about 5,500 compounds; about 2,000 (36%) were called active. Roughly 18% stayed inconclusive and do not appear here. Rule as the data show it: active = normalized growth mostly below about 0.91 (no sharp cut-off); inconclusive = no clear call, values can overlap the other calls; inactive = mostly above about 0.92. This is one part of the list.
Please reply with one of these outcomes: y = active, n = inactive

IN: Test call for this compound, please: N[C@H](C(=O)O)[C@@H]1CC(Cl)=NO1
OUT: y

IN: // same read-out, input: NCCC(=O)N[C@@H](Cc1cnc[nH]1)C(=O)O
OUT: n

IN: // same read-out, input: CC(=O)/C=C\[C@@H]1[C@@]2(C)CCCC(C)(C)C2CC[C@@]1(C)O (some centres not stated)
OUT: n

IN: // same read-out, input: CC1(C)CC[C@]2(C(=O)O)CC[C@]3(C)C(=CCC4[C@@]5(C)CC[C@@H](O)C(C)(C)C5CC[C@]43C)C2C1 (some centres not stated)
OUT: n

IN: // same read-out, input: Nc1c2c(nc3ccccc13)CCCC2
OUT: n

IN: // same read-out, input: Nc1c2ccccc2nc2ccccc12 (tested in a mixture with another compound)
OUT: n

IN: // same read-out, input: C[C@@H]1CC[C@H]2[C@@H](C)C(O)O[C@@H]3O[C@@]4(C)CC[C@@H]1[C@]32OO4 (some centres not stated)
OUT: n

IN: // same read-out, input: Cc1cc(C(C)(C)C)c(O)c(C(C)(C)C)c1
OUT: n

IN: // same read-out, input: NNc1nncc2ccccc12
OUT: n

IN: // same read-out, input: C#C[C@]1(O)CCC2C3CCC4=C(CCC(=O)C4)C3CC[C@@]21C (some centres not stated)
OUT: n

IN: // same read-out, input: COc1ccc2c3c([nH]c2c1)C(C)=NCC3
OUT: n

IN: // same read-out, input: NC(Cc1c[nH]c2ccccc12)C(=O)O (configuration not stated)
OUT: n

###

Task for the reader: assign each of the following compounds its reported normalized growth.
- method-description: chemical genetic growth profiling, strain panel (AID 1159580)
- conditions-used: S. cerevisiae deletion strains, growth OD, locus YBR279W, strain paf1, active compounds read low
Hit rate of the full screen: of about 5,500 compounds, about 2,000 (36%) were called active. Another 18% or so got no clear call; they are omitted. This is one part of the list.
Provide a numeric answer; units are not to be included.

IN: Bench note: what normalized growth did FC(F)(F)c1ccccc1-n1ccnc1 show?
OUT: 1

IN: // same read-out, input: Nc1c2ccccc2nc2ccccc12 (tested in a mixture with another compound)
OUT: 0.555

IN: // same read-out, input: CO[C@@]12[C@@H]3NC3CN1C1=C(C(=O)C(N)=C(C)C1=O)[C@@H]2COC(N)=O (stereo partly drawn)
OUT: 0.978

###

- method-description: chemical genetic growth profiling, strain panel (AID 1159580)
- conditions-used: S. cerevisiae deletion strains, growth OD, locus YJL166W, strain qcr8
The whole screen tested about 5,500 compounds, of which about 2,000 (36%) were called active. Another 18% or so got no clear call; they are omitted. Rule as the data show it: active = normalized growth mostly below about 0.91 (no sharp cut-off); inconclusive = no clear call, values can overlap the other calls; inactive = mostly above about 0.92. This is one part of the list.
Please reply with one of these outcomes: active, inactive

IN: Test call for this compound, please: C[C@@H]1CC[C@H]2[C@@H](C)C(O)O[C@@H]3O[C@@]4(C)CC[C@@H]1[C@]32OO4 (stereo partly specified)
OUT: active

IN: // same read-out, input: CC(=O)NC(C(=O)O)C(C)(C)SN=O (stereo unspecified)
OUT: inactive

IN: // same read-out, input: C[C@@H]1C(=O)O[C@H]2[C@H]1CC[C@@]1(C)C=CC(=O)[C@@]3(C)O[C@@]213
OUT: inactive

IN: // same read-out, input: CCCCCCCCCCCCCCC(C(=O)O)C(O)(CC(=O)OC)C(=O)O (stereo unspecified)
OUT: inactive

IN: // same read-out, input: CCCCCCCCCCCC[C@H](C(=O)O)[C@@H](C)C(=O)O
OUT: inactive

IN: // same read-out, input: C[C@@H]1CC[C@H]2[C@@H](C)C(=O)O[C@@H]3O[C@@]4(C)CC[C@@H]1[C@]32OO4
OUT: active

IN: // same read-out, input: CC(C)(C#N)O[C@@H]1O[C@H](CO)[C@@H](O)[C@H](O)[C@H]1O
OUT: inactive

IN: // same read-out, input: CC1(C)CC[C@]2(C(=O)O)CC[C@]3(C)C(=CCC4[C@@]5(C)CC[C@@H](O)C(C)(C)C5CC[C@]43C)C2C1 (stereo partly specified)
OUT: inactive

IN: // same read-out, input: CC1OC(=O)C(C(C)C)NC(=O)C(C(C)C)OC(=O)C(C(C)C)NC(=O)C(C)OC(=O)C(C(C)C)NC(=O)C(C(C)C)OC(=O)C(C(C)C)NC(=O)C(C)OC(=O)C(C(C)C)NC(=O)C(C(C)C)OC(=O)C(C(C)C)NC1=O (stereo unspecified)
OUT: active

IN: // same read-out, input: Nc1ccc(S(=O)(=O)Nc2ccnn2-c2ccccc2)cc1
OUT: inactive

IN: // same read-out, input: COc1cc(C(=O)NCCCCCC(=O)O)cc(OC)c1OC
OUT: inactive

###

- method-description: chemical genetic growth profiling, strain panel (AID 1159580);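 also: tested at 20 µM; growth read once vehicle control cultures reached saturation at 30 °C; 1 = growth at the plate median or of vehicle wells; lower values mean less growth of the strain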
- conditions-used: S. cerevisiae deletion strains, growth OD, locus YDR195W, strain ref2
Out of some 5,500 compounds screened, about 2,000 (36%) were called active. Not shown: some 18% with an inconclusive outcome. This is one part of the list.
Task for the reader: assign each of the following compounds its reported normalized growth.
Provide a numeric answer; units are not to be included.

IN: Bench note: what normalized growth did Cc1ccc(S(=O)(=O)NC(=O)NN2CC3CCCC3C2)cc1 (stereo not drawn) show?
OUT: 0.975

IN: // same read-out, input: CCC(C)C(NC)C(=O)O (stereo not drawn)
OUT: 0.985

IN: // same read-out, input: Cc1cc(O)cc(O)c1C(=O)O
OUT: 0.986

IN: // same read-out, input: NC(Cc1c[nH]c2ccccc12)C(=O)O (stereo not drawn)
OUT: 1.02

IN: // same read-out, input: CC(=O)/C=C\[C@@H]1[C@@]2(C)CCCC(C)(C)C2CC[C@@]1(C)O (stereo partly drawn)
OUT: 0.955

IN: // same read-out, input: COC(=O)Nc1nc2ccc(Sc3ccccc3)cc2[nH]1
OUT: 1.04

IN: // same read-out, input: O=c1ccc2ccc(O)cc2o1
OUT: 0.942

IN: // same read-out, input: FC(F)(F)c1ccccc1-n1ccnc1
OUT: 1.03

###

- method-description: chemical genetic growth profiling, strain panel (AID 1159580);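 also: tested at 20 µM; growth read once vehicle control cultures reached saturation at 30 °C; 1 = growth at the plate median or of vehicle wells; lower values mean less growth of the strain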
- conditions-used: S. cerevisiae deletion strains, growth OD, locus YMR231W, strain pep5, active compounds read low
About 2,000 (36%) of roughly 5,500 compounds were called active. Inconclusive results (about 18%) are left out. The list shows a part of the results.
Task for the reader: assign each of the following compounds its reported normalized growth.
Provide a numeric answer; units are not to be included.

IN: Bench note: what normalized growth did COc1cc(C(=O)NCCCCCC(=O)O)cc(OC)c1OC show?
OUT: 0.991

IN: // same read-out, input: COc1cc(N)c(Cl)cc1C(=O)NC1CCN(Cc2ccccc2)CC1
OUT: 0.985

IN: // same read-out, input: Nc1ccccc1C(=O)CC(N)C(=O)O (configuration not stated)
OUT: 0.996

IN: // same read-out, input: CC(C)CCCC1(C)C=Cc2c(O)c3c(c(CCC(C)C)c2O1)OC12C(CC4CC1C(C)(C)OC2(CCC(C)C(=O)O)C4O)C3=O (configuration not stated)
OUT: 0.986

IN: // same read-out, input: NC(N)=N/N=C/c1c(Cl)cccc1Cl
OUT: 0.987

IN: // same read-out, input: C/C=C1\[C@H]2C=C(C)C[C@]1(N)c1ccc(=O)[nH]c1C2
OUT: 1.02

IN: // same read-out, input: CC(C)CC(N(C)C)C1(c2ccc(Cl)cc2)CCC1 (configuration not stated)
OUT: 0.989

IN: // same read-out, input: CC(C)(Sc1cc(C(C)(C)C)c(O)c(C(C)(C)C)c1)Sc1cc(C(C)(C)C)c(O)c(C(C)(C)C)c1
OUT: 1

IN: // same read-out, input: O=c1ccc2ccc(O)cc2o1
OUT: 0.982

IN: // same read-out, input: NC(Cc1c[nH]c2ccccc12)C(=O)O (configuration not stated)
OUT: 1.02

IN: // same read-out, input: Cc1ccc(N=CN(C)C=Nc2ccc(C)cc2C)c(C)c1
OUT: 0.995

IN: // same read-out, input: CC(C)(C#N)O[C@@H]1O[C@H](CO)[C@@H](O)[C@H](O)[C@H]1O
OUT: 0.996

###

- method-description: chemical genetic growth profiling, strain panel (AID 1159580);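 also: tested at 20 µM; growth read once vehicle control cultures reached saturation at 30 °C; 1 = growth at the plate median or of vehicle wells; lower values mean less growth of the strain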
- conditions-used: S. cerevisiae deletion strains, growth OD, locus YLR342W, strain FKS1, active compounds read low
The whole screen tested about 5,500 compounds, of which about 2,000 (36%) were called active. Another 18% or so got no clear call; they are omitted. The list shows a part of the results.
endpoint-name: normalized growth
Provide a numeric answer; units are not to be included.

IN: Bench note: what normalized growth did COc1cccc2c1C(=O)c1c(O)c3c(c(O)c1C2=O)C[C@@](O)(C(C)=O)C[C@@H]3O[C@H]1C[C@H](N)[C@H](O)[C@H](C)O1 show?
OUT: 0.967

IN: // same read-out, input: C/C=C(/C)C(=O)OC1CCC2(C)C3CCC4C5(O)CC(O)C6(O)C(CN7CC(C)CCC7C6(C)O)C5(O)CC42OC13O (stereo not drawn)
OUT: 1

IN: // same read-out, input: O=C(CNC(=O)c1ccc(Cl)cc1)NO
OUT: 1.01
